Test: Solubility in acetone
Assay type: physicochemical
Design: key: ∘: completely dissolved; x: not completely dissolved
Details: 1.0 weight % based on acetone
endpoint: Solubility 1.0%

CCCCCCCCCCOc1ccc(C2=c3nc(c4c5cccc6cccc(c3=4)c65)C(c3ccc(OCCCCCCCCCC)cc3)=c3c4c(c5[n]3[Cu][n]3c2c2c(c3C(c3ccc(OCCCCCCCCCC)cc3)=c3nc(c6c7cccc8cccc(c3=6)c87)C=5c3ccc(OCCCCCCCCCC)cc3)-c3cccc5cccc-2c35)-c2cccc3cccc-4c23)cc1 [1-4]: ∘
CCCCOc1ccc(C2=c3nc(c4c5cccc6cccc(c3=4)c65)C(c3ccc(OCCCC)cc3)=c3c4c(c5[n]3[Cu][n]3c2c2c(c3C(c3ccc(OCCCC)cc3)=c3nc(c6c7cccc8cccc(c3=6)c87)C=5c3ccc(OCCCC)cc3)-c3cccc5cccc-2c35)-c2cccc3cccc-4c23)cc1 [1-1]: x

====

Assay: Absorption spectrum in chloroform (maximum absorption wavelength, gram absorption coefficient, 550/525 nm coefficient ratio)
Format: physicochemical
Conditions: chloroform solution
In this section we review reported εg (gram absorption coefficient) values for a set of compounds.

Task item: Please report the recorded εg (gram absorption coefficient) for "CCCCCCOc1ccc(C2=c3nc(c4c5cccc6cccc(c3=4)c65)C(c3ccc(OCCCCCC)cc3)=c3c4c(c5[n]3[Cu][n]3c2c2c(c3C(c3ccc(OCCCCCC)cc3)=c3nc(c6c7cccc8cccc(c3=6)c87)C=5c3ccc(OCCCCCC)cc3)-c3cccc5cccc-2c35)-c2cccc3cccc-4c23)cc1" .
Reply: 122,000

Task item: Entry "CCCCCCCCCCOc1ccc(C2=c3nc(c4c5cccc6cccc(c3=4)c65)C(c3ccc(OCCCCCCCCCC)cc3)=c3c4c(c5[n]3[Ni][n]3c2c2c(c3C(c3ccc(OCCCCCCCCCC)cc3)=c3nc(c6c7cccc8cccc(c3=6)c87)C=5c3ccc(OCCCCCCCCCC)cc3)-c3cccc5cccc-2c35)-c2cccc3cccc-4c23)cc1" : reported εg (gram absorption coefficient) = ?
Reply: 135,000

Task item: Name the recorded εg (gram absorption coefficient) for "CCCCCCCCCCOc1ccc(C2=c3nc(c4c5cccc6cccc(c3=4)c65)C(c3ccc(OCCCCCCCCCC)cc3)=c3c4c(c5[n]3[Cu][n]3c2c2c(c3C(c3ccc(OCCCCCCCCCC)cc3)=c3nc(c6c7cccc8cccc(c3=6)c87)C=5c3ccc(OCCCCCCCCCC)cc3)-c3cccc5cccc-2c35)-c2cccc3cccc-4c23)cc1" .
Reply: 115,000

Task item: For the compound shown here, "CCCCOc1ccc(C2=c3nc(c4c5cccc6cccc(c3=4)c65)C(c3ccc(OCCCC)cc3)=c3c4c(c5[n]3[Cu][n]3c2c2c(c3C(c3ccc(OCCCC)cc3)=c3nc(c6c7cccc8cccc(c3=6)c87)C=5c3ccc(OCCCC)cc3)-c3cccc5cccc-2c35)-c2cccc3cccc-4c23)cc1" , give the reported εg (gram absorption coefficient).
Reply: 162,000

====

Assay: Absorption spectrum in chloroform (maximum absorption wavelength, gram absorption coefficient, 550/525 nm coefficient ratio)
Assay type: physicochemical
Conditions: chloroform solution
Here the recorded εg (gram absorption coefficient) is given for each entry.

CCCCCOc1ccc(C2=c3nc(c4c5cccc6cccc(c3=4)c65)C(c3ccc(OCCCCC)cc3)=c3c4c(c5[n]3[Cu][n]3c2c2c(c3C(c3ccc(OCCCCC)cc3)=c3nc(c6c7cccc8cccc(c3=6)c87)C=5c3ccc(OCCCCC)cc3)-c3cccc5cccc-2c35)-c2cccc3cccc-4c23)cc1 [1-2]: 154,000

Here's the next entry for you.
Task item: Query (compound): CCCCCCCCCCOc1ccc(C2=c3nc(c4c5ccc(Cl)c6c(Cl)ccc(c3=4)c65)C(c3ccc(OCCCCCCCCCC)cc3)=c3c4c(c5[n]3[Ni][n]3c2c2c(c3C(c3ccc(OCCCCCCCCCC)cc3)=c3nc(c6c7ccc(Cl)c8c(Cl)ccc(c3=6)c87)C=5c3ccc(OCCCCCCCCCC)cc3)-c3ccc(Cl)c5c(Cl)ccc-2c35)-c2ccc(Cl)c3c(Cl)ccc-4c23)cc1 [1-7] ; field requested: εg (gram absorption coefficient)
Reply: 122,000

Recorded values, source patent US20070293666A1.
